- target_under_test: human OX2 receptor (Homo sapiens)
- Construct: expressed in transfected cells
- Sequence (O43614 1-444): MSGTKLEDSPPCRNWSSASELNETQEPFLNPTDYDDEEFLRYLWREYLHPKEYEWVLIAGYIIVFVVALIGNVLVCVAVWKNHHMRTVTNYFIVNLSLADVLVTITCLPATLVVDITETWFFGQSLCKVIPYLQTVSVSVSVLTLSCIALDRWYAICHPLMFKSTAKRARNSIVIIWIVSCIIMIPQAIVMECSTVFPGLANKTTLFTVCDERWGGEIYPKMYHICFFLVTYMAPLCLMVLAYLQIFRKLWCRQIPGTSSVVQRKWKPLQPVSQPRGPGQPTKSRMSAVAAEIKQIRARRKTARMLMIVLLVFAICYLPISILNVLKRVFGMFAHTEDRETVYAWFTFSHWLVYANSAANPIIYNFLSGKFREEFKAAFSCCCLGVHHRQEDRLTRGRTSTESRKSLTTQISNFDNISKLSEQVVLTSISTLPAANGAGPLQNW
- experiment: Measurement of orexin type 2 receptor agonist activity (Fluo-4 calcium fluorescence, FDSS)
- Format: cell-based
- experimental_conditions: compound at 3 μM; CHO cells forcibly expressing human OX2 receptor; DMSO = 0%, orexin A (human) 10 nM = 100%
# OX2R agonist activity (3 μM, %) per record follows
// return numeric value only (unit: %, not printed)

{"compound": "CO[C@@H]1CN(C(=O)c2cc(C)ccc2C)C[C@H]1Oc1cccc(NS(=O)(=O)C2CCOCC2)c1", "number": 92}
{"compound": "COc1ccc(-c2cccc(C(=O)N(C)C)c2)cc1S(=O)(=O)Nc1cccc(CC2CCN(C(=O)c3cc(C)ccc3C)C2)n1 (stereo not shown)", "number": 92}
{"compound": "COc1ccc(-c2cccc(C(=O)N(C)C)c2)cc1S(=O)(=O)Nc1cccc(O[C@H]2CCN(C(=O)c3cccc4c3OCC4)C2)c1", "number": 101}

Moving on to another compound below.
## Task OX2R agonist activity (3 μM, %) for COc1ccccc1S(=O)(=O)Nc1cccc(O[C@@H]2CN(C(=O)c3cc(C)ccc3C)C[C@H]2O)c1 (relative stereo) ?
## Result 60

====

# OX2R agonist activity (3 μM, %) per entry
- target_under_test: human OX2 receptor (Homo sapiens, UniProt O43614)
- Construct: expressed in transfected cells
- experiment: Measurement of orexin type 2 receptor agonist activity (Fluo-4 calcium fluorescence, FDSS)
- Type: cell-based
- experimental_conditions: compound at 3 μM; CHO cells forcibly expressing human OX2 receptor; DMSO = 0%, orexin A (human) 10 nM = 100%

Guide cases for OX2R agonist activity (3 μM, %), answers given:
{"compound": "COc1ccc(-c2cccc(C(=O)N(C)C)c2)cc1S(=O)(=O)Nc1cccc(O[C@H]2CCN(C(=O)c3ccccc3C)C2)c1", "target_under_test": "human OX2 receptor (Homo sapiens, UniProt O43614)", "readout_label": "OX2R agonist activity (3 μM, %)", "result": "92%"}
{"compound": "COc1ccccc1S(=O)(=O)Nc1cccc(O[C@@H]2CN(C(=O)c3c(C)cccc3OC)C[C@H]2OC)c1", "target_under_test": "human OX2 receptor (Homo sapiens, UniProt O43614)", "readout_label": "OX2R agonist activity (3 μM, %)", "result": "93%"}
{"compound": "Cc1cccc(C)c1C(=O)N1CC[C@H](Oc2cccc(NS(=O)(=O)c3cc(-c4cccc(C(=O)N(C)C)c4)ccc3F)c2)C1", "target_under_test": "human OX2 receptor (Homo sapiens, UniProt O43614)", "readout_label": "OX2R agonist activity (3 μM, %)", "result": "99%"}

## Task Given COc1ccc(-c2cccc(C(=O)N(C)C)c2)cc1S(=O)(=O)Nc1cccc(O[C@H]2CCN(C(=O)c3cnn(C)c3-c3ccccc3)C2)c1 , state its recorded OX2R agonist activity (3 μM, %).
## Result 97%

## Task # get_value(readout='OX2R agonist activity (3 μM, %)', item= COc1ccccc1S(=O)(=O)Nc1cccc(O[C@@H]2CN(C(=O)c3cc(C)ccc3C)C[C@H]2C#N)c1 (relative stereo) )
## Result 67%

## Task Look up OX2R agonist activity (3 μM, %): COc1ccccc1CC(=O)N1CC[C@H](Oc2cccc(NS(=O)(=O)c3cc(-c4cccc(C(=O)N(C)C)c4)ccc3OC)c2)C1
## Result 90%

====

- target_under_test: human OX2 receptor (Homo sapiens)
- Construct: expressed in transfected cells
- experiment: Measurement of orexin type 2 receptor agonist activity (Fluo-4 calcium fluorescence, FDSS)
- Type: cell-based
- experimental_conditions: compound at 3 μM; CHO cells forcibly expressing human OX2 receptor; DMSO = 0%, orexin A (human) 10 nM = 100%
readout_label: OX2R agonist activity (3 μM, %)
Report as a plain number; the unit % is understood.

Field: example entries. Status: answers known.
{"molecule": "COc1ccc(-c2cccc(C(=O)N(C)C)c2)cc1S(=O)(=O)Nc1cccc(O[C@H]2CCN(C(=O)C3(c4ccccc4)CC3)C2)c1", "output_unit": "%", "number": 99}
{"molecule": "COc1ccccc1S(=O)(=O)Nc1cccc(O[C@@H]2CN(C(=O)C3(c4ccccc4)CC3)C[C@H]2OC)c1", "output_unit": "%", "number": 79}
{"molecule": "COc1ccc(-c2cccc(C(=O)N(C)C)c2)cc1S(=O)(=O)Nc1cccc(O[C@H]2CCN(C(=O)c3ccc(C)cc3C)C2)c1", "output_unit": "%", "number": 97}
{"molecule": "COc1ccc(N2CCOCC2)cc1S(=O)(=O)Nc1cccc(O[C@H]2CCN(C(=O)c3c(C)cccc3C)C2)c1", "output_unit": "%", "number": 75}
{"molecule": "COc1ccc(-c2cccc(C(=O)N(C)C)c2)cc1S(=O)(=O)Nc1cccc(NC2CCN(C(=O)c3cccc(C)c3)C2)c1 (stereo not drawn)", "output_unit": "%", "number": 103}

Please find the next molecule below.
## Task I am curious: what OX2R agonist activity (3 μM, %) value has been reported for COc1ccc(-c2cccc(C(=O)N(C)C)c2)cc1S(=O)(=O)Nc1cccc(O[C@H]2CCN(C(=O)c3ccccc3N(C)C)C2)c1 ?
## Result 91

====

- target_under_test: human OX2 receptor (Homo sapiens, UniProt O43614)
- Construct: expressed in transfected cells
- experiment: Measurement of orexin type 2 receptor agonist activity (Fluo-4 calcium fluorescence, FDSS)
- Assay type: cell-based
- experimental_conditions: compound at 3 μM; CHO cells forcibly expressing human OX2 receptor; DMSO = 0%, orexin A (human) 10 nM = 100%
OX2R agonist activity (3 μM, %) overview
Provide the reading as a plain figure in %.

Please review the entries below; each comes with its answer.
{"compound": "COc1ccccc1S(=O)(=O)Nc1cc(C)cc(O[C@@H]2CN(C(=O)c3cc(C)ccc3C)C[C@H]2OC)c1 (relative stereo) [Example 105]", "number": 94}
{"compound": "COc1ccc(-c2cccc(C(=O)N(C)C)c2)cc1S(=O)(=O)Nc1cccc(OC2CCN(C(=O)c3cccc(C)c3)C2)c1 (stereo not drawn) [Example 2]", "number": 90}

Please turn your attention to the following entry.
## Task Form: Entry = COc1ccccc1S(=O)(=O)Nc1cccc(O[C@@H]2CN(C(=O)c3cc(C)ccc3C)C[C@H]2OC)c1C (relative stereo) [Example 103] | System = human OX2 receptor (Homo sapiens, UniProt O43614) | OX2R agonist activity (3 μM, %) = ____
## Result 80

Source listed as patent US11034700B2.
